tested on: MKL-1; experiment: qHTS assay to identify novel small-molecules to repurpose for Merkel cell carcinoma treatment (AID 1296009); conditions: MCC and control cell lines, CellTiter-Glo viability, 72 h; series mostly up to 46 µM; also: nearly all actives have a fitted effect of over 60% in size
Inconclusive results are not listed. Calls of active or inactive are those of the source. Calls follow the shape of the dose curve; as a rule, active = well fitted inhibition curve with a large enough effect; inconclusive = small, poorly fitted or top-dose-only effect; inactive = flat fitted curve, though single readings scatter.
Write down one outcome, taken from 1 = active, -1 = inactive

[in] Name the outcome recorded for CC(=O)O[C@H]1C[C@@H]2CC[C@H]3[C@H]4C[C@H]([N+]5(C)CCCCC5)[C@@H](OC(C)=O)[C@@]4(C)CC[C@@H]3[C@@]2(C)C[C@H]1N1CCCCC1 in the assay.
[out] -1

[in] Hey, what did the test say about CC(Cc1ccc(O)c(O)c1)(NN)C(=O)O (stereo not given) ?
[out] -1

[in] Can you look up the reported call for CC(C(C)N1CC(=O)NC(=O)C1)N1CC(=O)NC(=O)C1 (stereo not given) for me?
[out] -1

[in] Hello, I am checking results. What call was entered for O=C(c1ccc(F)cc1)N1CCC[C@H](c2nc(-c3ccc(F)cc3)no2)C1 ?
[out] -1

[in] Which outcome was assigned to O=C(CCCCCCC(=O)Nc1cccnc1)NO in this test?
[out] 1

[in] Given Cc1cc(O)c2c(c1)C(=O)c1cccc(O)c1C2=O , state the outcome it received in this test.
[out] -1

[in] Field: outcome | Entry: C=CCNc1c(O)cc2c(O)c1C[C@@H](C)C[C@H](OC)[C@@H](O)[C@@H](C)C=C(C)[C@H](OC(N)=O)[C@@H](OC)C=CC=C(C)C(=O)N2
[out] 1

[in] # lookup: test call for CCOC(=O)[C@H](CCc1ccccc1)N[C@@H](C)C(=O)N1[C@@H](C(=O)O)C[C@H]2CCC[C@@H]21
[out] -1

[in] State the result this test recorded for O=C(O)[C@H](CC(=O)N1C[C@@H]2CCCC[C@H]2C1)Cc1ccccc1 .
[out] -1

[in] Could you check what this test reported for CC(=O)O[C@]1(C(C)=O)CC[C@H]2[C@@H]3C=C(C)C4=CC(=O)CC[C@]4(C)[C@@H]3CC[C@@]21C ?
[out] 1

[in] Give the logged outcome of this assay for the following compound: CC1(C)CC(O)CC(C)(C)N1[O]
[out] -1

[in] // param item: Cc1coc2c1C(=O)C(=O)c1c-2ccc2c(C)cccc12 ; yields the recorded call
[out] -1

[in] Please state the recorded outcome for this compound: Nc1nc(=O)n([C@H]2CSC(CO)O2)cc1F (stereo not given in full)
[out] -1

[in] Assay outcome for COc1cc(OC)cc(-c2ccc3ncc4ccc(=O)n(-c5ccc(N6CCNCC6)c(C(F)(F)F)c5)c4c3c2)c1 : what was it?
[out] 1

[in] So what was the verdict on CCN(CC)Cc1ccc2cc(COC(=O)Nc3ccc(C(=O)NO)cc3)ccc2c1 in this test?
[out] 1

###

Assay: Quantitative High-Throughput drug screen in 47 multiple myeloma cell lines against the NCATS MIPE library collection: VP6_DJ cell viability assay (AID 1919867); also: nearly all actives have a fitted effect of over 40% in size
Conditions: ATP luminescence, 48 h; series mostly up to 45.8 µM
From the text: PI: Beverly A. Mock Ph.D. Laboratory of Cancer Biology and Genetics, Center for Cancer Research, National Cancer Institute, National Institute of Health, Bethesda, Maryland […] 5; Detector; 425V; Luminescence; Viewlux PerkinElmer. […] 1. […] Briefly, the corresponding myeloma cell lines were screened in 1,536-well plates with 500 cells, 5-uL per well for inhibition of cell viability (assessed by measuring ATP levels with CellTiterGlo). […]
Results filed as inconclusive are left out. Active and inactive are the calls of the source. Calls follow the shape of the dose curve; as a rule, active = well fitted cell-killing curve with a large enough effect; inconclusive = small, poorly fitted or top-dose-only effect, or effect the other way; inactive = no such curve, though single readings can be large or run the other way. Residues, ends and D or L forms follow the SMILES beside them. *: point of attachment. Cbz = O=C(OCc1ccccc1)*
Please state which outcome applies, choosing from TRUE for active, FALSE for inactive

[in] # fetch the recorded call for C=CC(=O)Nc1cccc(Nc2nc(NC3CCC(N(C)C)CC3)nc3c2ncn3C(C)C)c1 (centres undefined) here
[out] TRUE

[in] Hi, sorry to bother you, what did the test record for CCN(CC)CCCCNc1ncc2c(n1)N(C)C(=O)N(c1c(Cl)c(OC)cc(OC)c1Cl)C2 ?
[out] TRUE

[in] Entry Cc1ncc(-c2ccnc(Nc3ccc(S(C)(=O)=O)cc3)n2)n1C(C)C : call = ?
[out] TRUE

[in] Returns: the outcome recorded for CCCCC(=O)O[C@]1(C(=O)CO)[C@@H](C)C[C@H]2[C@@H]3CCC4=CC(=O)C=C[C@]4(C)[C@@]3(F)[C@@H](O)C[C@@]21C in this assay.
[out] TRUE

[in] I'd appreciate the recorded outcome for C[C@H]1C[C@H]2[C@@H]3CCC4=CC(=O)C=C[C@]4(C)[C@@H]3C(=O)C[C@]2(C)[C@@]1(O)C(=O)CO from this test.
[out] TRUE

[in] Recorded test call requested for C[C@@]12C[C@@]3(O)O[C@@H](O1)[C@]1(COC(=O)c4ccccc4)[C@@H]3C[C@@]12O[C@@H]1O[C@H](CO)[C@@H](O)[C@H](O)[C@@H]1O
[out] TRUE

[in] Short answer needed: outcome of this test for Nc1nc2c(c(=O)[nH]1)N(C=O)[C@H](CNc1ccc(C(=O)N[C@@H](CCC(=O)O)C(=O)O)cc1)CN2 ?
[out] FALSE

[in] Can you look up the reported call for CC(C)C[C@@H](C=O)NC(=O)[C@H](CC(C)C)NC(=O)[C@H](CC(C)C)NC(=O)OCc1ccccc1 (Cbz-Leu-Leu-Leu-aldehyde) for me?
[out] TRUE

[in] Please let me know the test result on file for CON=C(C(=O)N[C@@H]1C(=O)N2C(C(=O)O)=C(CSC(=O)c3ccco3)CS[C@H]12)c1csc(N)n1 .
[out] FALSE

[in] Please indicate how the test categorized Nc1nc(=O)n([C@H]2CSC(CO)O2)cc1F (some centres undefined) .
[out] FALSE

[in] Test call, this compound: O=C(NNC(=O)c1ccc(CNS(=O)(=O)c2ccc(F)c(Cl)c2)cc1)c1ccccc1
[out] FALSE

[in] Could you check what this test reported for Oc1cc(-c2nc(-c3ccccc3)[nH]c2-c2ccncc2)ccc1Cl ?
[out] TRUE

[in] Fill in: this test's call for O=c1[nH]c(=O)n([C@H]2C[C@@H](O)[C@@H](CO)O2)cc1C=CBr is ___
[out] FALSE

[in] Query: recorded result category for C=CC[C@@H]1C=C(C)C[C@H](C)C[C@H](OC)[C@H]2O[C@@](O)(C(=O)C(=O)N3CCCC[C@H]3C(=O)O[C@H](C(C)=C[C@@H]3CC[C@H](O)[C@H](OC)C3)[C@@H](C)[C@@H](O)CC1=O)[C@@H](C)C[C@@H]2OC in this test
[out] TRUE

###

assay: qHTS of pediatric cancer cell lines to identify multiple opportunities for drug repurposing: Primary screen for OHS-50 cells (AID 1347103); conditions: OHS-50 osteosarcoma viability, CellTiter-Glo luminescence, 48 h; series mostly up to 57.3 µM; also: nearly all actives have a fitted effect of over 40% in size
Inconclusive results are not listed. The source made the active and inactive calls. The call rests on the fitted dose curve; in most records, active means well fitted cell-killing curve with a large enough effect; inconclusive means small, poorly fitted or top-dose-only effect; inactive means no such curve, though single readings can be large or run the other way.
The reply should be one of these categories: active, inactive

[in] What is the recorded call for this compound in the test? O=C(C=CC#Cc1cccc(NS(=O)(=O)c2ccccc2)c1)NO
[out] active

[in] Could you please tell me the result logged for C[N+](C)([O-])CCNc1ccc(NCC[N+](C)(C)[O-])c2c1C(=O)c1c(O)ccc(O)c1C2=O in this assay?
[out] inactive

[in] Field: outcome | Entry: CC(=O)N1CCN(c2ccc(OCc3nn(C)c(C)c3-c3cccc4c(CCCOc5cccc6ccccc56)c(C(=O)O)n(Cc5cccnc5)c34)cc2)CC1
[out] active

[in] Called result for CC(=O)N[C@H]1[C@@H]([C@H](O)[C@H](O)CO)OC(C(=O)O)=C[C@@H]1N=C(N)N
[out] inactive

[in] Check the results log: what was the call for CCOC(=O)N1CCN([N+]([O-])=NOc2ccc([N+](=O)[O-])cc2[N+](=O)[O-])CC1 ?
[out] active

[in] Recorded test outcome, item CN(N=O)C(=O)N[C@H]1C(O)OC(CO)[C@@H](O)[C@H]1O (some centres undefined)
[out] inactive

[in] Hi, do you know how CC1(C)O[C@@H]2C[C@H]3[C@@H]4CCC5=CC(=O)C=C[C@]5(C)[C@@H]4[C@@H](O)C[C@]3(C)[C@]2(C(=O)CO)O1 came out in this test?
[out] inactive

[in] Hi team, can someone confirm the assay call for Cc1noc(-c2ccc(CSCCC(=O)O)cc2)c1NC(=O)OC(C)c1ccccc1Cl (centres undefined) ?
[out] inactive

[in] // return assay outcome for O=C(O)C[C@H](O)C[C@H](O)C=Cc1c(C2CC2)nc2ccccc2c1-c1ccc(F)cc1
[out] active

###

experiment: qHTS of pediatric cancer cell lines to identify multiple opportunities for drug repurposing: Primary screen for Rh30 cells (AID 1347107); details: Rh30 rhabdomyosarcoma viability, CellTiter-Glo luminescence, 48 h; series mostly up to 46 µM; also: nearly all actives have a fitted effect of over 75% in size; also: potency is read from the fitted curve at half-maximal effect
Inconclusive results are not listed. The source made the active and inactive calls. The call rests on the fitted dose curve; in most records, active means well fitted cell-killing curve with a large enough effect; inconclusive means small, poorly fitted or top-dose-only effect; inactive means no such curve, though single readings can be large or run the other way.
measured-property: Potency

compound=O=C1NC(=O)C(=Cc2ccc3nccc(-c4ccncc4)c3c2)S1 measured_property=Potency test_value="1.48 µM (active)"
compound=N#Cc1c(NC(=O)c2cccc3ccccc23)sc2c1CCCC2 measured_property=Potency test_value=inactive
compound=CC(=O)N[C@H]1[C@@H]([C@H](O)[C@H](O)CO)OC(C(=O)O)=C[C@@H]1N=C(N)N measured_property=Potency test_value=inactive
compound=CC(C=CC(=O)NO)=C[C@@H](C)C(=O)c1ccc(N(C)C)cc1 measured_property=Potency test_value="7.43 µM (active)"

[in] Item COc1cc(OC)c(C=CS(=O)(=O)Cc2ccc(OC)c(NCC(=O)O)c2)c(OC)c1 : provide Potency
[out] inactive

[in] Read the entry CC(=O)OCC(=O)[C@@]1(O)CC[C@H]2[C@@H]3CCC4=CC(=O)CC[C@]4(C)[C@@H]3C(=O)C[C@@]21C and write its reported Potency.
[out] inactive

[in] Could you please provide reported Potency for O=C(NCc1ccccc1)[C@H](Cc1ccccc1)NC(=O)[C@@H]1O[C@@H]1C(=O)NCCc1ccc(O)cc1 ? Thanks!
[out] inactive

[in] Determine its reported Potency: COc1cc([C@@H]2c3cc4c(cc3[C@H](O)[C@H]3COC(=O)[C@@H]23)OCO4)cc(OC)c1OC
[out] inactive

[in] Tell me Potency reported for OC[C@@H](O)[C@@H](O)[C@H](O)[C@@H](O)CO
[out] inactive

[in] Complete the entry with Potency for Cc1cc(C(=O)NOCCO)c(Nc2ccc(I)cc2F)n(C)c1=O
[out] inactive

[in] Return Potency (reported value) for this compound: C[C@@]12C[C@@]3(O)O[C@@H](O1)[C@]1(COC(=O)c4ccccc4)[C@@H]3C[C@@]12O[C@@H]1O[C@H](CO)[C@@H](O)[C@H](O)[C@@H]1O
[out] inactive

[in] Item COc1cc2ncnc(Nc3cccc(Br)c3)c2cc1OC : provide Potency
[out] inactive

[in] Return value of Potency for input COc1cccc2c1C(=O)c1c(O)c3c(c(O)c1C2=O)C[C@@](O)(C(=O)CO)C[C@@H]3O[C@H]1C[C@H](N)[C@@H](O)[C@H](C)O1 , no commentary.
[out] inactive

[in] Entry O=C(CCCCCCC(=O)Nc1cccnc1)NO needs its Potency filled in; supply it.
[out] 18.7 µM (active)
